Sourced from ChEMBL document CHEMBL3779817

Organism: Homo sapiens
Experiment: Selectivity index, ratio of Ki for recombinant human CB1 receptor to Ki for recombinant human CB2 receptor
quantity.name: Ratio Ki

Below are worked cases with known answers.
compound.smiles	Ratio Ki
CCCCCn1cc(C(=O)NC23CC4CC(CC(C4)C2)C3)c(=O)c2cc(-c3ccccc3)ccc21	> 2660
COc1ccc(CNC(=O)c2c(O)c3cc(-c4cccs4)ccc3n(CCCCO)c2=O)cc1	> 4
CCCCCn1c(=O)c(C(=O)NC23CC4CC(CC(C4)C2)C3)c(O)c2cc(C(C)C)c(F)cc21	> 150
CC(C)c1ccc2c(c1)c(=O)c(C(=O)NC13CC4CC(CC(C4)C1)C3)cn2CCN1CCS(=O)(=O)CC1	> 5
COCCOCn1cc(C(=O)NC23CC4CC(CC(C4)C2)C3)c(=O)c2cc(C(C)C)ccc21	> 20

Briefly, Ratio Ki measured for CC(C)c1ccc2c(c1)c(=O)c(C(=O)NC13CC4CC(CC(C4)C1)C3)cn2CCN(C)C : > 68

Briefly, Ratio Ki measured for COCCOCn1cc(C(=O)NC23CC4CC(CC(C4)C2)C3)c(=O)c2ccc(F)cc21 : > 177
